Every entry's value here was drawn from ChEMBL document CHEMBL1137202.

Listed here: molecules with reported Ki for Adenosine receptor A1 (Homo sapiens).
assayReadout: Ki (µM)

| compoundSmiles | testedTarget | assayReadout | measurementUnit | reported |
| --- | --- | --- | --- | --- |
| CCn1nnc([C@H]2O[C@@H](n3cnc4c(N)nc(N[C@H](CO)Cc5ccccc5)nc43)[C@H](O)[C@@H]2O)n1 | Adenosine receptor A1 (Homo sapiens) | Ki | µM | 0.369 |
| CCn1nnc([C@H]2O[C@@H](n3cnc4c(N)nc(N[C@H](CO)Cc5ccc(Cl)cc5)nc43)[C@H](O)[C@@H]2O)n1 | Adenosine receptor A1 (Homo sapiens) | Ki | µM | 0.67 |
